IC50 values, listed per item
System: SK-HEP-1
Experiment: Cell proliferation assay (Alamar Blue)
Format: cell-based
Details: SK-HEP-1 liver cancer cell line; 6 days culture
Method: 1. Instruments and Materials • Thermo 311 CO2 incubator; Haier biosafety cabinet; Molecular Devices microplate reader; Xiangyi brand L530 desktop low speed centrifuge; Olympus IX51 inverted fluorescence microscope, DMEM, RPMI 1640, MEM, DMEM/F12 1:1 medium, Fetal bovine serum, 0.25% trypsin solution, phosphate buffer (Thermo Fisher Shanghai Co., Ltd.); sigma dimethyl sulfoxide (DMSO), resazurin; 54 commercial tumor cell lines (including 26 liver cancer cell lines). […]
Experimental readout: IC50

Item smiles: Cc1ccc(F)c(NC(=O)Nc2ccc(-c3cccc4[nH]nc(NC(=O)CCCCCCCCCCCNC(=O)C[C@H](N)C(=O)N[C@@H](CCC(=O)N[C@@H](CCC(=O)N[C@@H](CCC(=O)N[C@@H](CCC(=O)N[C@@H](CCC(=O)N[C@@H](CCC(=O)N[C@@H](CCC(=O)N[C@@H](CCC(=O)N[C@@H](CCC(=O)O)C(=O)O)C(=O)O)C(=O)O)C(=O)O)C(=O)O)C(=O)O)C(=O)O)C(=O)O)C(=O)O)c34)cc2)c1
Target under test: SK-HEP-1
Experimental readout: IC50
Value: > 100 µM
--
Item smiles: Cc1ccc(F)c(NC(=O)Nc2ccc(-c3cccc4[nH]nc(NC(=O)CCCCCNC(=O)C[C@H](N)C(=O)O)c34)cc2)c1
Target under test: SK-HEP-1
Experimental readout: IC50
Value: > 100 µM
